Target: P-glycoprotein (P-gp) (Homo sapiens)
Construct: The resistant CEM/vcr1000 line was obtained by stepwise selection in vincristine containing medium; endogenous in cells; host or cells: CCRF-CEM vcr1000 (CEM/vcr1000), a human T-lymphoblast line made multidrug resistant by vincristine selection
Assay: Daunorubicin efflux inhibition in multidrug resistant CCRF-CEM vcr1000 cells
Format: cell-based
Details: SM Table 2; logarithm of the measured IC50 (μM) of Table 1
Description: Biological activity of target compounds 5a–22b was assessed using the daunorubicin efflux protocol as described previously. Briefly, multidrug resistant CCRF-CEM vcr 1,000 cells were incubated with daunorubicin and the decrease in mean cellular fluorescence in dependence of time was measured in presence of various concentrations of the modulator. IC50 values were calculated from the concentration–response curve of efflux V max /K m versus concentration of the modulator. […]
observable: Exp. LogIC50

Past entries and their recorded results:
CC1(C)Oc2ccc(C#N)cc2[C@H]2N[C@@H](Cc3ccccc3)C(=O)O[C@@H]21 [14a] :: -0.42
C[C@H]1C(=O)O[C@H]2[C@@H](c3cc(C#N)ccc3OC2(C)C)N1C [15a] :: -1.68
C[C@H]1C(=O)O[C@@H]2[C@H](c3cc(C#N)ccc3OC2(C)C)N1C [15b] :: -1.46
CC(C)[C@H](N[C@H]1c2cc(C#N)ccc2OC(C)(C)[C@@H]1O)C(=O)OC(C)(C)C :: -0.43

[P] C[C@@H](C(=O)OC(C)(C)C)N(C)[C@H]1c2cc(C#N)ccc2OC(C)(C)[C@@H]1O
[Q] CC(C)[C@@H]1N[C@@H]2c3cc(C#N)ccc3OC(C)(C)[C@H]2OC1=O [13a]
[R] CC(C)[C@@H](C(=O)OC(C)(C)C)N(C)[C@@H]1c2cc(C#N)ccc2OC(C)(C)[C@H]1O
[S] CC(C)[C@H](N[C@@H]1c2cc(C#N)ccc2OC(C)(C)[C@H]1O)C(=O)OC(C)(C)C
Prompt: Sort by Exp. LogIC50, descending. Labels, requested order.
Completion: R, S, P, Q

----------
Molecular target: P-glycoprotein (P-gp) (Homo sapiens, UniProt P08183)
Construct: The resistant CEM/vcr1000 line was obtained by stepwise selection in vincristine containing medium; endogenous in cells; host or cells: CCRF-CEM vcr1000 (CEM/vcr1000), a human T-lymphoblast line made multidrug resistant by vincristine selection
Sequence (P08183 whole entry): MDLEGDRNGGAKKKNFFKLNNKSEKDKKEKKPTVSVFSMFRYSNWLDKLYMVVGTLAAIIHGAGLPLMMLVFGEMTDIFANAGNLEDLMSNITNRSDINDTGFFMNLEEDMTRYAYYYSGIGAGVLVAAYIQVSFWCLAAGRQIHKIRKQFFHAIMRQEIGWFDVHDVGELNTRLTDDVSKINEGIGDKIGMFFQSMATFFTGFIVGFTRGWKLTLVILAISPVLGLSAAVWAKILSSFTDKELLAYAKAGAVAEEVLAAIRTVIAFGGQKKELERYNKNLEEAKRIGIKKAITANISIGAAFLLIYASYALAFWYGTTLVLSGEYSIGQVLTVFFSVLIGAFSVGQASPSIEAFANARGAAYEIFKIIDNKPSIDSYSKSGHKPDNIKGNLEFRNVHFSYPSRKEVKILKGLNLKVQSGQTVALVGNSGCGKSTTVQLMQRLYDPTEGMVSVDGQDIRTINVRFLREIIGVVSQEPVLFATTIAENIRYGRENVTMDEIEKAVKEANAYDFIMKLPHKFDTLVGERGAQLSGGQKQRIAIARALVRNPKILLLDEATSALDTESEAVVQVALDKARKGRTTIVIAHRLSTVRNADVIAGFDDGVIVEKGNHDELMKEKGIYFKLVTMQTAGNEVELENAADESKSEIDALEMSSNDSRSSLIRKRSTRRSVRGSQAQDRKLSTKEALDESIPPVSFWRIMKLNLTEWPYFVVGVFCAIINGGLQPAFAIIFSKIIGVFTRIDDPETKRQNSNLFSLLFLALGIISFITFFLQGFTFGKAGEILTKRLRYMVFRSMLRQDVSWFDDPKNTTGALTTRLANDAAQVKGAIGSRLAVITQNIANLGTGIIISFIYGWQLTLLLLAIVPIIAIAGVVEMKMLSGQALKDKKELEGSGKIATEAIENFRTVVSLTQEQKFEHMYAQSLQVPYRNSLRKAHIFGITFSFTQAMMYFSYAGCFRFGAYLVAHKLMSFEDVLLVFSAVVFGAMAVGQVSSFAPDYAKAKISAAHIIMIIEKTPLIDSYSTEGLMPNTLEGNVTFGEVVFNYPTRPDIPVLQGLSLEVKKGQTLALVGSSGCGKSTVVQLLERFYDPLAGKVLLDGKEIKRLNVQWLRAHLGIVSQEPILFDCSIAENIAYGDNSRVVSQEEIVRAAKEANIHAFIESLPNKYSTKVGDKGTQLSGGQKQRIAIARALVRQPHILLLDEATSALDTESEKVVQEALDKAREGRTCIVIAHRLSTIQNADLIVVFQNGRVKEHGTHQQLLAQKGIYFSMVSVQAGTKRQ
Test: Daunorubicin efflux inhibition in multidrug resistant CCRF-CEM vcr1000 cells
Format: cell-based
Conditions: inhibition of P-gp mediated daunorubicin efflux, CCRF-CEM vcr1000 cells; mean of at least three experiments; read-out: IC50 μM ± SD
observable: IC50 (µM)

Past entries and their recorded results:
CC(C)[C@H](N[C@@H]1c2cc(C#N)ccc2OC(C)(C)[C@H]1O)C(=O)OC(C)(C)C :: 2.4
CC(C)[C@@H](CO)N(C)[C@@H]1c2cc(C#N)ccc2OC(C)(C)[C@H]1O [20a] :: 5.46
C[C@@H](C(=O)OC(C)(C)C)N(C)[C@H]1c2cc(C#N)ccc2OC(C)(C)[C@@H]1O :: 3.72
CC(C)[C@H]1N[C@H]2c3cc(C#N)ccc3OC(C)(C)[C@@H]2OC1=O [17b] :: 9.63
CC(C)[C@@H](CO)N(C)[C@H]1c2cc(C#N)ccc2OC(C)(C)[C@@H]1O [20b] :: 6.84

[a] CC(C)[C@H]1C(=O)O[C@H]2[C@@H](c3cc(C#N)ccc3OC2(C)C)N1C [16a]
[b] CC(C)[C@@H](C(=O)OC(C)(C)C)N(C)[C@@H]1c2cc(C#N)ccc2OC(C)(C)[C@H]1O
[c] CC(C)[C@H](N[C@H]1c2cc(C#N)ccc2OC(C)(C)[C@@H]1O)C(=O)OC(C)(C)C
[d] CC(C)[C@@H](N[C@@H]1c2cc(C#N)ccc2OC(C)(C)[C@H]1O)C(=O)OC(C)(C)C [10a]
[e] C[C@@H]1N[C@H]2c3cc(C#N)ccc3OC(C)(C)[C@@H]2OC1=O [12b]
Prompt: Sort by IC50, descending. Labels, requested order.
Completion: e, a, d, c, b
(e: 76.9 µM, a: 47.5 µM, d: 4.62 µM, c: 2.7 µM, b: 0.96 µM)

[a] CC(C)[C@H]1CO[C@@H]2[C@@H](N1)c1cc(C#N)ccc1OC2(C)C [21b]
[b] CC(C)[C@@H](C(=O)OC(C)(C)C)N(C)[C@H]1c2cc(C#N)ccc2OC(C)(C)[C@@H]1O
[c] C[C@@H](C(=O)OC(C)(C)C)N(C)[C@@H]1c2cc(C#N)ccc2OC(C)(C)[C@H]1O
Prompt: With regard to IC50, arrange the entries in ascending order, please. Labels, requested order.
Completion: b, c, a

[1] CC(C)[C@@H]1N[C@H]2c3cc(C#N)ccc3OC(C)(C)[C@@H]2OC1=O [13b]
[2] CC(C)[C@H](C(=O)OC(C)(C)C)N(C)[C@@H]1c2cc(C#N)ccc2OC(C)(C)[C@H]1O [11a]
Prompt: Lower value for measured IC50? Options: 1 , 2 Please identify the chosen entry by its label.
Completion: 2
